Reference for the values: patent US12497394B2

- Target desc: receptor tyrosine kinase AXL (Homo sapiens)
- Construct: 50 μL of AXL kinase domain recombinant protein diluted in reaction buffer was added to start the reaction; made in house; host or cells: insect cells (baculovirus expression system)
- Sequence (P30530 536-807 limits assumed): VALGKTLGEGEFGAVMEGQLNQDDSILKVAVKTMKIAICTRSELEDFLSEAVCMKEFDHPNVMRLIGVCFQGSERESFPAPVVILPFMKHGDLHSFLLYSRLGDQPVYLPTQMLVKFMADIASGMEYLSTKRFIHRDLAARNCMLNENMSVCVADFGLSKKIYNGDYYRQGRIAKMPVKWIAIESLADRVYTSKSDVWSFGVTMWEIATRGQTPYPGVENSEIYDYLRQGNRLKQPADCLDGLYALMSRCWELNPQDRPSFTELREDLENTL
- Test: Enzyme activity of receptor tyrosine kinase AXL (ELISA)
- Type: biochemical
- Experimental: Detection method: Enzyme-linked immunosorbent assay (ELISA) Tested receptor tyrosine kinase: AXL The full-wavelength microplate reader for experiment reading was a product of Molecular Device, model: SpectraMax 190; the experiment water was distilled water produced by Sinopharm Group. […] 6. The reaction was quenched with 50 μL/well 2M […], and read at 490 nm using a tunable microplate reader VERSAmax. […]
Endpoint: IC50 (nM)

Compound | IC50 [nM]
COCCOc1cc2ncnc(Oc3ccc(NC(=O)c4c5n(n(-c6ccc(F)cc6)c4=O)CCCC5)cc3F)c2cc1OCCOC [DC621044] | 7.6
COCCOc1cc2ncnc(Oc3ccc(NC(=O)c4c5n(n(-c6cc(F)ccc6F)c4=O)CCCC5)cc3F)c2cc1OCCOC [DC621024] | 8.7

====

- Target desc: receptor tyrosine kinase c-Met (Homo sapiens, UniProt P08581)
- Sequence (P08581 25-1390): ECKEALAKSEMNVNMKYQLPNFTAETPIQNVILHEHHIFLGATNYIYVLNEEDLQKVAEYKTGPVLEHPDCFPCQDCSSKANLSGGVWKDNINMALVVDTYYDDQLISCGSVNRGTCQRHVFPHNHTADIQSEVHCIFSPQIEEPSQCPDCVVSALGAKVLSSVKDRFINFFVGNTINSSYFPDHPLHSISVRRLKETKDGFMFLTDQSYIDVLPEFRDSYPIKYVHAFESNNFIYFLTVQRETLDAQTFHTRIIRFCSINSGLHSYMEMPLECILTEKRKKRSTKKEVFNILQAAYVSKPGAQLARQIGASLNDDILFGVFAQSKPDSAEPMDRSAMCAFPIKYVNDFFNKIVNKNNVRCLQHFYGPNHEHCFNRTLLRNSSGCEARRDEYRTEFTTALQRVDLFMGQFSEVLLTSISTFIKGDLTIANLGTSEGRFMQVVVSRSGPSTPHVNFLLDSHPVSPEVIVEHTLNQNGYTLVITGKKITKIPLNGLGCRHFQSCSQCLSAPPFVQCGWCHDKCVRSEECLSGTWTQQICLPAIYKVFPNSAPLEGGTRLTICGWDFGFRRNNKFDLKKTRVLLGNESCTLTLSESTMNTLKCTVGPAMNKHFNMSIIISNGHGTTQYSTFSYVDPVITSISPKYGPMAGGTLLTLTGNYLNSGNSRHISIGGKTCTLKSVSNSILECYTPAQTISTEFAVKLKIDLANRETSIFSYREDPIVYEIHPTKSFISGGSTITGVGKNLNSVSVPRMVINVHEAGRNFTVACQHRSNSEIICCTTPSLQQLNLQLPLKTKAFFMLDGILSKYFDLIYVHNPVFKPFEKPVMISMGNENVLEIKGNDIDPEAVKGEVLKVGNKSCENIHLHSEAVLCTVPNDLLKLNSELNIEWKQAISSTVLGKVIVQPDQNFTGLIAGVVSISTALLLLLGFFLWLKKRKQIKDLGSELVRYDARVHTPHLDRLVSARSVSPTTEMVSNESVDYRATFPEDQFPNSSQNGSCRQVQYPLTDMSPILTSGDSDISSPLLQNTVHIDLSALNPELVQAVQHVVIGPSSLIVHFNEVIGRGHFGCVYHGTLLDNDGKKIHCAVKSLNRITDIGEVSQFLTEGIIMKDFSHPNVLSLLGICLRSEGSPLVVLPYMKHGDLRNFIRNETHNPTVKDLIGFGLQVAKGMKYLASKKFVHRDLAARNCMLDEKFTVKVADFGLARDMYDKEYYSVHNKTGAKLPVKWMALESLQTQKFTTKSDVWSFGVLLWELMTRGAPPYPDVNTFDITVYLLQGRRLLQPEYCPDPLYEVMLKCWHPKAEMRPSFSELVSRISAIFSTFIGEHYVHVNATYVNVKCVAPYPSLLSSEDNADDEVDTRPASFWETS
- Test: In vitro c-Met kinase inhibitory activity
- Type: biochemical
- Experimental parameters: 100 nM; two values per compound; read-out: c-Met Inhibitory rate (%)
Endpoint: inhibition at 0.1 µM (%)

Chem smiles | Unit | inhibition at 0.1 µM
COCCOc1cc2ncnc(Oc3ccc(NC(=O)c4c5n(n(-c6ccccc6)c4=O)CCCC5)c(F)c3)c2cc1OCCOC | % | 93.9
COCCOc1cc2ncnc(Oc3ccc(NC(=O)c4c5n(n(-c6ccc(F)cc6)c4=O)CCCC5)cc3C(F)(F)F)c2cc1OCCOC | % | 99.1
COCCOc1cc2ncnc(Oc3ccc(NC(=O)c4c5n(n(-c6ccc(F)cc6)c4=O)CCCC5)cc3F)c2cc1OCCOC | % | 97.1
COc1cc2ncnc(Oc3ccc(NC(=O)c4c5n(n(-c6ccccc6)c4=O)CCCC5)cc3F)c2cc1OC | % | 86.6
COCCOc1cc2ncnc(Oc3ccc(NC(=O)c4c5n(n(-c6cc(F)ccc6F)c4=O)CCCC5)c(F)c3)c2cc1OCCOC | % | 94.1
COc1cc2ncnc(Oc3ccc(NC(=O)c4c5n(n(-c6ccccc6F)c4=O)CCCC5)cc3F)c2cc1OC | % | 97.5
O=C(Nc1ccc(Oc2ncnc3cc4c(cc23)OCCOCCOCCO4)c(Cl)c1)c1c2n(n(-c3ccc(F)cc3)c1=O)CCCC2 | % | 100
COCCOc1cc2ncnc(Oc3ccc(NC(=O)c4c5n(n(-c6cc(F)ccc6F)c4=O)CCCC5)cc3F)c2cc1OCCOC | % | 99.4
COc1cc2ncnc(Oc3ccc(NC(=O)c4c5n(n(-c6cc(F)ccc6F)c4=O)CCCC5)cc3F)c2cc1OC | % | 99.2
COc1cc2ncnc(Oc3ccc(NC(=O)c4c5n(n(-c6cc(F)ccc6F)c4=O)CCCC5)cc3)c2cc1OC | % | 81.9
COCCOc1cc2ncnc(Oc3ccc(NC(=O)c4c5n(n(-c6ccccc6F)c4=O)CCCC5)c(F)c3)c2cc1OCCOC | % | 94.6
O=C(Nc1ccc(Oc2ncnc3cc4c(cc23)OCCOCCOCCO4)c(F)c1)c1c2n(n(-c3cc(F)ccc3F)c1=O)CCCC2 | % | 94.8
O=C(Nc1ccc(Oc2ncnc3[nH]cc(-c4ccccc4)c23)c(F)c1)c1c2n(n(-c3ccccc3F)c1=O)CCCC2 | % | 89.2
O=C(Nc1ccc(Oc2ncnc3[nH]cc(-c4ccccc4)c23)c(F)c1)c1c2n(n(-c3ccccc3)c1=O)CCCC2 | % | 84.5
COc1cc2nccc(Oc3ccc(NC(=O)c4c5n(n(-c6ccccc6)c4=O)CCCC5)cc3F)c2cc1OC | % | 92
COCCOc1cc2ncnc(Oc3ccc(NC(=O)c4c5n(n(-c6ccc(F)cc6)c4=O)CCCC5)cc3Cl)c2cc1OCCOC | % | 94.4
COc1cc2ncnc(Oc3ccc(NC(=O)c4c5n(n(-c6ccc(F)cc6)c4=O)CCCC5)cc3C(F)(F)F)c2cc1OC | % | 96.5
COCCOc1cc2ncnc(Oc3ccc(NC(=O)c4c5n(n(-c6ccccc6)c4=O)CCCC5)cc3C(F)(F)F)c2cc1OCCOC | % | 95.8
O=C(Nc1ccc(Oc2ncnc3[nH]cc(-c4ccccc4)c23)c(F)c1)c1c2n(n(-c3cc(F)ccc3F)c1=O)CCCC2 | % | 96
